molecular target: YU2_(gp140) (foldon trimer) (HIV-1 (strain YU2))
Value type: binding result

>  <Binder>
561_09_71 (antibody, V domains shown) VH: QLAQSGGGVKKPGASVKISCVTPESTFTKYWLHWVRQAPGQGFEWLGVVSPHGGRPMFANKFRDRLTLTRDIHTTTHYMELRGLTSDDTAIYYCARDSFGETFRHSGDQPYQMDVWGGGTNIVVSS VL: EPVLTQSPGTLSLSPGERATLSCRASQGFSVDHLAWFQKRPGRPPRLLIFETSRRANGSPDRFSGSASGAEYTLTISNVEPEDFAVYYCQSYGSITPLIFGGGTRVDVK

>  <Observed value>
binds

$$$$
>  <Binder>
561_09_23 (antibody, V domains shown) VH: QAHLFQSGAELKRPGASVRISCRADDDPYTDDDTFTKYYTHWIRQAPGQRPEWLGVISPHFARPIYSYKFQDRLTLTRDSSLTAVYLELRSLRLDDTGIYYCARDPFGERAPHYNYHMDVWGAGTTVIVSS VL: EVVLTQSPAILSASPGDRVVLSCRASEGLDSSQLAWYRFKDGQIPRLVLFGVSNRARGTPDRFSGGGSGADFTLTISRVEREDFATYYCQRFGATPITFGGGTRLDMN

>  <Observed value>
binds

$$$$
>  <Binder>
561_02_27 (antibody, V domains shown) VH: QGRLFQSGTEVKRPGASVKISCRADDDPYTDDDTFTKYYTHWIRQAPGQRPEWLGVISPHYARPIYSYKFRDRLTLTRDSSLTAVYFELRGLQPDDTGIYFCARDPFGDMYPHYNYHMDVWGGGTTVIVSA VL: EVVLTQSPAILSVSPGDRVILSCKASEGLSSSDLAWYRFKGGQIPTLVIFGASNRARGTPDRFSGSGSGTDFTLTINRVEPEDFATYYCQRYGGTPITFGGGTTLDKK

>  <Observed value>
binds

$$$$
